The values you see were collected from patent EP0652009A1.

# Tested on: Cathepsin D (Homo sapiens)
# Assay info: Assay 3: cathepsin D inhibition activity (non-cellular assay, chromogenic substrate)
# Format: biochemical
# Parameters: Frozen human placental tissue was thawed and homogenized; from tissue; host or cells: human placenta
# Recorded conditions: cathepsin D from human placental tissue, chromogenic substrate, pH 3.7, 37°C
// NB: equality with 200 nM counts as Not satisfied; only Ki strictly below is Satisfied

>>> answer_label("CCC(C)C(NC(=O)N(C)Cc1ccc2ccccc2n1)C(=O)NC(Cc1ccccc1)C1OC1C(Cc1ccccc1)NC(=O)C(NC(=O)N(C)Cc1ccc2ccccc2n1)C(C)CC (stereo not shown) [Example 5]")
"Not satisfied"

Does this molecule meet the criterion Ki < 200 nM? CC[C@H](NC(=O)OCc1ccccc1)C(=O)N[C@@H](Cc1ccccc1)[C@@H]1O[C@@H]1[C@H](Cc1ccccc1)NC(=O)[C@H](CC)NC(=O)OCc1ccccc1 [Example 2] Not satisfied

Problem: For the molecule CC(C)C(NC(=O)C(Cc1cccc2ccccc12)NC(=O)OC(C)(C)C)C(=O)NC(Cc1ccccc1)C(O)Cc1ccccc1C(=O)NC(C)(C)C (stereo not shown) [Example 24] , is Ki under 200 nM? Satisfied

In the record for CC(C)(C)NC(=O)c1ccccc1CC(O)C(Cc1ccccc1)NC(=O)C(CC(N)=O)NC(=O)c1ccc2ccccc2n1 (stereo not shown) [Example 6] , is Ki less than 200 nM? Not satisfied

Would you kindly verify if Ki of CC(C)(C)NC(=O)c1ccccc1CC(O)C(Cc1ccccc1)NC(=O)C(CC(N)=O)NC(=O)c1ccc2cccc(C(F)(F)F)c2n1 (stereo not shown) [Example 22] is strictly less than 200 nM? Not satisfied

# strict comparison: is reported Ki < 200 nM? input = CC(C)C(NC(=O)C(Cc1cccc2ccccc12)NC(=O)OC(C)(C)C)C(=O)NC(Cc1ccccc1)C(O)Cc1ccccc1C(=O)NC(C)(C)C (stereo not shown) [Example 23] Satisfied

For this molecule, is Ki lower than 200 nM? CC(C)C(NC(=O)OCc1ccccc1)C(=O)NC(Cc1ccccc1)C1OC1C(Cc1ccccc1)NC(=O)C(NC(=O)OCc1ccccc1)C(C)C (stereo not shown) [Example 1] Not satisfied

----------
# Tested on: Cathepsin D (Homo sapiens, UniProt P07339)
# Assay info: Assay 3: cathepsin D inhibition activity (non-cellular assay, chromogenic substrate)
# Format: biochemical
# Set-up: Frozen human placental tissue was thawed and homogenized; from tissue; host or cells: human placenta
# Recorded conditions: cathepsin D from human placental tissue, chromogenic substrate, pH 3.7, 37°C
# Source text: A third non-cellular assay for determining in vitro aspartyl protease inhibitory activity is generally described in Jupp, R.A. et al., (1990) Biochem. J., 265:871-878 and Rao et al., J. Med. Chem. (1993), in press. […] The inhibition constant, Ki, value may then be determined by quantifying the competitive inhibition of the hydrolysis of the chromogenic substrate. […] A decrease in absorbance in the range of 284-324 nm may be monitored using a spectrophotometer. […]
Result type: Ki (µM)
One number for each entry, in µM.

Solved entries:
>>> observed_result("CC(C)(C)NC(=O)c1ccccc1CC(O)C(Cc1ccccc1)NC(=O)C(CC(N)=O)NC(=O)C(Cc1cccc2ccccc12)NC(=O)OC(C)(C)C (stereo not drawn) [Example 26]")
2.3
>>> observed_result("Cc1ccc2ccc(C(=O)N[C@@H](CC(N)=O)C(=O)N[C@@H](Cc3ccccc3)[C@H](O)Cc3ccccc3C(=O)NC(C)(C)C)nc2c1 [Example 8]")
1.17

Please state Ki for every compound in the list that follows.
1. CC(C)(C)NC(=O)c1ccccc1CC(O)C(Cc1ccccc1)NC(=O)C(CC(N)=O)NC(=O)C(Cc1cccc2ccccc12)NC(=O)OC(C)(C)C (stereo not drawn) [Example 25]
2. Cc1cc(C(=O)N[C@@H](CC(N)=O)C(=O)N[C@@H](Cc2ccccc2)[C@H](O)Cc2ccccc2C(=O)NC(C)(C)C)nc2ccccc12 [Example 10]
3. CC(C)C(NC(=O)OCc1ccccn1)C(=O)NC(Cc1ccccc1)C(O)C(O)C(Cc1ccccc1)NC(=O)C(NC(=O)OCc1ccccn1)C(C)C (stereo not drawn) [Example 35]
4. CC(C)(C)NC(=O)c1ccccc1C[C@@H](O)[C@H](Cc1ccccc1)NC(=O)[C@H](CC(=O)NCc1nc2ccccc2[nH]1)NC(=O)c1ccc2ccccc2n1 [Example 18]
5. CC(C)C(NC(=O)OCc1ccc2ccccc2n1)C(=O)NC(Cc1ccccc1)C(O)C(O)C(Cc1ccccc1)NC(=O)C(NC(=O)OCc1ccc2ccccc2n1)C(C)C (stereo not drawn) [Example 34]

1: 1.44; 2: 5.51; 3: 0.086; 4: 2.2; 5: 0.018

Fill in Ki for each of the 2 compounds listed.
1. Cc1cccc2ccc(C(=O)N[C@@H](CC(N)=O)C(=O)N[C@@H](Cc3ccccc3)[C@H](O)Cc3ccccc3C(=O)NC(C)(C)C)nc12 [Example 9]
2. CC(C)C(NC(=O)OCc1ccccc1)C(=O)NC(Cc1ccccc1)C(O)C(O)C(Cc1ccccc1)NC(=O)C(NC(=O)OCc1ccccc1)C(C)C (stereo not drawn) [Example 33]

0.82
0.023

----------
# Tested on: Human liver cathepsin D (Homo sapiens)
# Sequence (P07339 169-412 limits assumed): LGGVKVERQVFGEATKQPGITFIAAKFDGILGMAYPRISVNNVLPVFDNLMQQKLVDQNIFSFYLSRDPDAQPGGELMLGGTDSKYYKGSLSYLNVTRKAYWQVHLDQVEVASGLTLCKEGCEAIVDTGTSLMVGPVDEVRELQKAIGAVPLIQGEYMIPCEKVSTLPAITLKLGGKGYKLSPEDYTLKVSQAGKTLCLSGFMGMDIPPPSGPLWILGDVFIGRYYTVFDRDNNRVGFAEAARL
# Sequence (P07339 65-162 limits assumed): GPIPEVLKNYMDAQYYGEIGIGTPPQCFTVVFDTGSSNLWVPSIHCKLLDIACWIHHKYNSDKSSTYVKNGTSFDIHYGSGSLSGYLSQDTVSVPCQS
# Assay info: Assay 2: cathepsin D inhibition activity (non-cellular fluorometric assay)
# Assay type: biochemical
# Parameters: Human liver cathepsin D (Athens Research and Technology, Athens, GA); purchased Athens Research and Technology, Athens, GA
# Recorded conditions: compound at 10 µg/mL; percent inhibition of control activity; mean and standard deviation of at least four replicate assays
Give inhibition at 10 µg/mL for every item shown.
Answers are plain numbers, in %.

>>> observed_result("CC(C)[C@H](NC(=O)c1cnc2ccccc2n1)C(=O)N[C@@H](Cc1ccccc1)[C@H](O)Cc1ccccc1C(=O)NC(C)(C)C")
12.4
>>> observed_result("CC(C)C(NC(=O)C(Cc1cccc2ccccc12)NC(=O)OC(C)(C)C)C(=O)NC(Cc1ccccc1)C(O)Cc1ccccc1C(=O)NC(C)(C)C (centres unmarked)")
96.3
>>> observed_result("CC(C)[C@H](NC(=O)c1ccc2ccccc2c1)C(=O)N[C@@H](Cc1ccccc1)[C@H](O)Cc1ccccc1C(=O)NC(C)(C)C")
91.4
>>> observed_result("CC(C)C[C@H](NC(=O)c1ccc2ccccc2n1)C(=O)N[C@@H](Cc1ccccc1)[C@H](O)Cc1ccccc1C(=O)NC(C)(C)C")
94.8

Please turn your attention to the following entry.
Requested read-out inhibition at 10 µg/mL, target or system Human liver cathepsin D (Homo sapiens), entry CC(C)[C@H](NC(=O)OC(C)(C)C)C(=O)N[C@@H](Cc1ccccc1)[C@H](O)Cc1ccccc1C(=O)NC(C)(C)C [Example 23A] 32.5

----------
Exercise: for every item that follows, state its recorded pKi.
# Tested on: UniProt:P07339
# Assay info: Assay 3: cathepsin D inhibition activity (non-cellular assay, chromogenic substrate)
# Format: biochemical
# Design: Frozen human placental tissue was thawed and homogenized; from tissue; host or cells: human placenta
# Recorded conditions: cathepsin D from human placental tissue, chromogenic substrate, pH 3.7, 37°C
One number for each entry, as −log10 of the molar value.

Would you please look over these solved cases?
>>> observed_result("CC(C)(C)NC(=O)c1ccccc1CC(O)C(Cc1ccccc1)NC(=O)C(CC(=O)NCc1ncc[nH]1)NC(=O)c1ccc2ccccc2n1 (stereo not drawn) [Example 17]")
5.64
>>> observed_result("CCC(NC(=O)N(C)Cc1ccc2ccccc2n1)C(=O)NC(Cc1ccccc1)C1OC1C(Cc1ccccc1)NC(=O)C(CC)NC(=O)N(C)Cc1ccc2ccccc2n1 (stereo not drawn) [Example 4]")
5.21

From here, focus on the item given below.
Form field: reported pKi of Cc1ccc(CC(O)C(Cc2ccccc2)NC(=O)C(CC(N)=O)NC(=O)c2ccc3ccccc3n2)c(C(=O)NC(C)(C)C)c1 (stereo not drawn) [Example 7] 6.38
